These entries and their values trace back to ChEMBL document CHEMBL4732255.

test system: A549; assay: Antiproliferative activity against human A549 cells assessed as reduction in cell viability measured after 72 hrs by sulforhodamine B assay; assay type: functional, cell-based; conditions: A549, 72 h
Give measured IC50 for each item. Keep answers brief.
# unit: µM | format: bare number

Reported IC50 for CO[C@@]12Cc3ccc(cc3)O[C@H]3[C@@H]4[C@H]5C(=O)[C@](C[C@@H](O)[C@@]5(C)C=C(C)[C@H]4[C@]4(C)C[C@H](C)C[C@H](C)[C@@H]34)(C1)C(=O)N2 was 13.2

Entry Cn1c2ccccc2c2cc3n(c(=O)c21)[C@@](C)(O)N(CCc1ccccc1)C3=O ; IC50 = 21.2

Quick note, IC50 for CC(=O)c1nc(C(=O)NCCc2ccccc2)cc2c3ccccc3n(C)c12 landed at 18.2

// IC50 value for C[C@H]1Oc2c(c(O)c3c4c(c(O)ccc24)OC3=O)C1(C)C : 42.9

// sample CC(C)[C@@H](C)/C=C/[C@@H](C)[C@H]1CC[C@H]2C3=CC=C4C[C@@H](O)CC[C@]4(C)[C@H]3CC[C@]12C [ERGOSTEROL] , its IC50 was 19.2

Sure, the documented IC50 for CC1=C[C@@]2(C)[C@@H]3C(=O)[C@]4(C[C@@H]2O)C[C@@](O)(Cc2ccc(cc2)O[C@H]2[C@H]3[C@@H]1[C@]1(C)C[C@H](C)C[C@H](C)[C@@H]21)NC4=O is 7.3

Entry CO[C@@]1(C)N(/C=C/c2ccccc2)C(=O)c2cc3c([nH]c4ccccc43)c(=O)n21 — recorded IC50 = 12.7

// sample CC(=O)c1nc(C(=O)NCCc2ccccc2)cc2c1[nH]c1ccccc12 , its IC50 was 48.2
